# Tested on: M19-MEL
# protocol_description: NCI tumour cell line growth inhibition, 48 h
Activity calls are given as the source filed them. Rule as the data show it: active = GI50 up to about 1.1 µM and inactive = higher.
Pick one and only one: active, inactive

Field: example entries. Status: answers known.
> print(dat)
                                   compound     class
1  Cc1ccc(S(=O)(=O)C2=c3ncccc3=C3C(=O)c4ccccc4C(=O)C32)cc1 (stereo unspecified)    active
2  CCOC(=O)C1(Cc2ccc3ccccc3c2)CCCCCN1 (stereo unspecified)  inactive
3  NC1=NC2=c3ccccc3=C(c3cnccn3)C2(c2cnccn2)c2ccccc21 (stereo unspecified)  inactive

For this compound, state the assay outcome: CCOC(=O)C(=O)Nc1cc(Cl)ccc1Cl
inactive
